Biological target: T1, human ActRIIB (human, UniProt Q13705 19-137, limits assumed);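 further: immunoglobulin held at a fixed level and mixed with serially diluted antigen overnight at 4 °C to equilibrium, then unbound antibody captured on antigen-coated plates and read by electrochemiluminescence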
T1 construct: antigen in MSD-SET; also called ACVR2B; ActR2B
T1 sequence: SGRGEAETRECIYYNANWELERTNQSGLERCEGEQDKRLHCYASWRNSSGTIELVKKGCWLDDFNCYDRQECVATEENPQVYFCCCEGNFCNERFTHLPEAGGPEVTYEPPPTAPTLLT
Assay: MSD-SET
pKd: −log10 of the molar value.
parameterMeasured: pKd

binder	parameterMeasured	measurement
Soidawürstle, Human IgG1-PALALA (antibody, V domains shown, human IgG1 with PA-LALA (L234A/L235A/P329A), EU numbering) VH: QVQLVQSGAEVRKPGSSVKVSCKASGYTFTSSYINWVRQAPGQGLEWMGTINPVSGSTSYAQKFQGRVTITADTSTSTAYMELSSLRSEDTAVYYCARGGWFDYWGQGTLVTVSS VL: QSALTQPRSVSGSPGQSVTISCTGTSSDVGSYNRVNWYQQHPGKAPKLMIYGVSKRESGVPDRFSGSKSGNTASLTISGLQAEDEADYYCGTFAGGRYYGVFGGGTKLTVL	pKd	11.22
Schwardamaga Fab (Fab, V domains shown, Fab) VH: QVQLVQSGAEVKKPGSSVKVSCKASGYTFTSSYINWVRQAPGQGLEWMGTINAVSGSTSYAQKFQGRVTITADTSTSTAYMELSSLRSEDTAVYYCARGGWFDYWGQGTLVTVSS VL: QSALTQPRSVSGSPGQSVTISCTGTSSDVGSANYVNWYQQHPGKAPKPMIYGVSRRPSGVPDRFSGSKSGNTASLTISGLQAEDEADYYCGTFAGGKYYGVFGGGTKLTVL	pKd	11.00
Soidawürstle Fab (Fab, V domains shown, Fab; also called Soidawüsrstel (Fab)) VH: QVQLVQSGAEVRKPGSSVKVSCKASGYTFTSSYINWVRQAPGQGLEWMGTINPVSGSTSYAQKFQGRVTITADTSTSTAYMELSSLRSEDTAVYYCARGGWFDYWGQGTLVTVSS VL: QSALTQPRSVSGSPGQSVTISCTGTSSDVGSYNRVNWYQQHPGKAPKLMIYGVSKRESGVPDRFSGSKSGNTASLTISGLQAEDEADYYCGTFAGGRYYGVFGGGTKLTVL	pKd	10.96
Ofaschlupfer Fab (Fab, V domains shown, Fab) VH: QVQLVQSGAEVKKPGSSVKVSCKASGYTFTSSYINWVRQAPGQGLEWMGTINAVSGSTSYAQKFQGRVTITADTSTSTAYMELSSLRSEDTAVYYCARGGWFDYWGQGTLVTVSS VL: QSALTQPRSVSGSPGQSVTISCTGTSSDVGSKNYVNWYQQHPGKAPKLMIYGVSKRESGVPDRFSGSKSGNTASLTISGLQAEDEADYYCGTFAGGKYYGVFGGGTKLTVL	pKd	11.70
Ofaschlupfer, Mouse IgG2a-PALALA (antibody, V domains shown, mouse IgG2a constant region with PALALA) VH: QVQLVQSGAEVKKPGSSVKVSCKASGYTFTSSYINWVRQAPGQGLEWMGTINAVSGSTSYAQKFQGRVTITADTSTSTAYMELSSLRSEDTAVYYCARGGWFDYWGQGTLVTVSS VL: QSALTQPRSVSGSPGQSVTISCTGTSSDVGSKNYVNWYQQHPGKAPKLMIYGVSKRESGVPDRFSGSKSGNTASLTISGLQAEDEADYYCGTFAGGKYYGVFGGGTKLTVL	pKd	11.40
Ofaschlupfer, Human IgG1-PALALA (antibody, V domains shown, human IgG1 with PA-LALA (L234A/L235A/P329A), EU numbering) VH: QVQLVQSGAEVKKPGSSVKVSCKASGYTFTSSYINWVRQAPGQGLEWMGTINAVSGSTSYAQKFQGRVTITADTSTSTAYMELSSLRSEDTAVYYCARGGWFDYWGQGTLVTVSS VL: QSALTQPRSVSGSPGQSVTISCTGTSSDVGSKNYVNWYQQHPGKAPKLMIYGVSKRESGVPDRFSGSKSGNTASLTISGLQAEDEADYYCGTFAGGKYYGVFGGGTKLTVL	pKd	11.52
Ofaschlupfer, Human IgG1-PALALA-YTE (antibody, V domains shown, human IgG1 with PA-LALA (L234A/L235A/P329A) and YTE (M252Y/S254T/T256E), EU numbering) VH: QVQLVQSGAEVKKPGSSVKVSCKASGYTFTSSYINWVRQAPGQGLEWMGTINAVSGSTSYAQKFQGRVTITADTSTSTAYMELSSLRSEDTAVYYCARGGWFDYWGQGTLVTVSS VL: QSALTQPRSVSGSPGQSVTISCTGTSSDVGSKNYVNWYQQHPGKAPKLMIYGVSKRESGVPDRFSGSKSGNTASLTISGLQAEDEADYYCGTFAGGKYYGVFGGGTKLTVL	pKd	11.52
Soidawürstle, Mouse IgG2a-PALALA (antibody, V domains shown, mouse IgG2a constant region with PALALA) VH: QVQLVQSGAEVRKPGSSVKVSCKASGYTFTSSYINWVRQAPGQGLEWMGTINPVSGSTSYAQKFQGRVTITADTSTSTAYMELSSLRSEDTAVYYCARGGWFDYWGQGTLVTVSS VL: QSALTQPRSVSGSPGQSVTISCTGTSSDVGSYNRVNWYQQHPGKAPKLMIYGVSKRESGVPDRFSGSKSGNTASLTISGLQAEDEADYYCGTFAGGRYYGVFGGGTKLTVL	pKd	11.52
Schwardamaga, Human IgG1-PALALA (antibody, V domains shown, human IgG1 with PA-LALA (L234A/L235A/P329A), EU numbering) VH: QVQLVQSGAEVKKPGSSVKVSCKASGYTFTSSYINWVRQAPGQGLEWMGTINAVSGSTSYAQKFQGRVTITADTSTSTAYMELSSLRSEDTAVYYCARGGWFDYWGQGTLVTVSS VL: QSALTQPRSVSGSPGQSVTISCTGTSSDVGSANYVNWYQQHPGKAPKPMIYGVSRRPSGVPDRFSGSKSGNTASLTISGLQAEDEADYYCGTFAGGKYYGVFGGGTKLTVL	pKd	10.96
Schwardamaga, Human IgG1-PALALA-YTE (antibody, V domains shown, human IgG1 with PA-LALA (L234A/L235A/P329A) and YTE (M252Y/S254T/T256E), EU numbering) VH: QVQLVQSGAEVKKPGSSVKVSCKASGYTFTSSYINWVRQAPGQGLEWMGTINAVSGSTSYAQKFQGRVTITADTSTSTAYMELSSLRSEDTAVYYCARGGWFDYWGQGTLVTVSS VL: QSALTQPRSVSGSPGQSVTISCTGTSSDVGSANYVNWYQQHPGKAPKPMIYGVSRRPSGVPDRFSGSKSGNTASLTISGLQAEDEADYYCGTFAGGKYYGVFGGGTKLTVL	pKd	10.89
Soidawürstle, Human IgG1-PALALA-YTE (antibody, V domains shown, human IgG1 with PA-LALA (L234A/L235A/P329A) and YTE (M252Y/S254T/T256E), EU numbering) VH: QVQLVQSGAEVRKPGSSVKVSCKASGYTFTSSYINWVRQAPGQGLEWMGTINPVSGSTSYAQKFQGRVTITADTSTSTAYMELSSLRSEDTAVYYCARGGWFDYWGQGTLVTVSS VL: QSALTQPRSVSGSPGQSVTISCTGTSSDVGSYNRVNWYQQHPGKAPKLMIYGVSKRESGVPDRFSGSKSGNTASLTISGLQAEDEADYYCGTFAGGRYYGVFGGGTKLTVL	pKd	11.30
